I'd be grateful if you could share measured MIC for these entries.
System: Staphylococcus aureus
Test: Minimum inhibitory concentration against Staphylococcus aureus - methicillin resistant Ciprofloxacin sensitive strain MI300
Format: functional
Entry format: amount then unit.

Previously resolved entries follow.
>>> result("CC[C@@H]1CCN(c2c(F)cc3c(=O)c(C(=O)O)cn(C4CC4)c3c2F)C[C@H]1N")
"0.006 µg/mL"
>>> result("N[C@H]1CCCN(c2ccc3c(=O)c(C(=O)O)cn(C4CC4)c3c2Cl)C1")
"0.016 µg/mL"
>>> result("CC[C@@H]1CCN(c2cc3c(cc2F)c(=O)c(C(=O)O)cn3C2CC2)C[C@H]1N")
"0.094 µg/mL"
>>> result("COc1c(N2CCNC(C)C2)c(F)cc2c(=O)c(C(=O)O)cn(C3CC3)c12 (configuration not stated)")
"0.06 µg/mL"
>>> result("CC[C@H]1CCN(c2ccc3c(=O)c(C(=O)O)cn(C4CC4)c3c2OC)C[C@H]1N")
"0.25 µg/mL"

For each of the items listed, what is its MIC?
1. COc1c(N2CC[C@@H]([C@@H](C)N)C2)c(F)cc2c(=O)c(C(=O)O)cn(C3CC3)c12
2. NC1CCN(c2c(F)cc3c(=O)c(C(=O)O)cn(C4CC4)c3c2Cl)C1 (configuration not stated)

output:
["0.008 µg/mL", "0.03 µg/mL"]

Data provenance is ChEMBL document CHEMBL1145050.
